B1: Caulobacter ParB omega fusion; a variant is named by its letters at X, in order, B8GW30 (parent)
chain: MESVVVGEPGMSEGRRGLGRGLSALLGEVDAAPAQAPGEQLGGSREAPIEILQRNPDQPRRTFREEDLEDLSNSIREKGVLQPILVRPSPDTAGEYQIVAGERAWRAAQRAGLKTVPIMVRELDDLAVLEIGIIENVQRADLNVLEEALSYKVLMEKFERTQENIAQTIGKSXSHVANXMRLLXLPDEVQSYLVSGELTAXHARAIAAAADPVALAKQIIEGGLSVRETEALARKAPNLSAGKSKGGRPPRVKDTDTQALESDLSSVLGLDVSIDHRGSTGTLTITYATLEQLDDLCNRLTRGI

- Variants of: B1
- protocol: one-hybrid fitness for binding parS DNA (scaled: cognate 1, non-cognate 0); higher = stronger binding
- measurementSetup: with parS DNA site
Whole data set: some 81,000 sequences, median “one-hybrid fitness for binding parS DNA” near -0.17, cut for the highest 2% near 0.51. This is one part of a sample in which the highest values are shown more often than they occur.
attributeMeasured: one-hybrid fitness for binding parS DNA

Take a look at these entries with their results.
mutant | one-hybrid fitness for binding parS DNA
RMCR | ≤ 0.2
HDLW | ≤ 0.2
GFRL | ≤ 0.2
CLAL | ≤ 0.2
TCGR | ≤ 0.2

Problem: one-hybrid fitness for binding parS DNA lookup needed for PRGK , thanks.
Solution: ≤ 0.2

Problem: Then this variant: HKHC
Solution: ≤ 0.2
